Molecular target: recombinant ATX (mouse ATX-β) (Mus musculus)
Construct: purchased Sino Biological
Assay: Inhibition of ATX, Amplex Red PLD assay kit
Format: biochemical
Conditions: thioamides/phosphonates/phosphinates; substrate 50 μM LPC 16:0; 2 nM recombinant ATX; mean of two independent experiments; read-out: IC50 (μM) 16:0 LPC
Experimental: The in vitro activity of the synthetic inhibitors was studied using the Amplex™ Red PLD assay kit (Molecular Probes, Interchim, Montlucon, France). Inhibitors were dissolved in DMSO (stock solution 3 mM) and appropriate dilutions were made in DMSO. […] The IC50 values were determined using the mean values obtained from two independent experiments. […]
Measure: IC50 (µM)

Would you please look over these solved cases?
>>> df
                                   molecule  measure  reported
0  CCCCCCCCCCCCCC(=O)Nc1ccc(CC[PH](=O)O)cc1     IC50       0.4
1  CCCCCCCCCCCCCC(=S)NCCCC[PH](=O)O [GK325]     IC50       0.5
2        CCCCCCCCCCCCCC(=S)NCCCCP(=O)(O)OCC     IC50      0.12
3  CCCCCCCCCCCCCC(=S)NCCCC[PH](=O)O [GK312]     IC50         3

I. CCCCCCCCCCCCNC(=S)NCCCCC(=S)NCC
II. CCCCCCCCCCCCCC(=S)NCCCCC(=S)NCC
Please tell me which of the two, I or II , has the higher reported IC50 value. // output: label of the selected item
II

---

Target: recombinant ATX (mouse ATX-β) (Mus musculus)
Construct: purchased Sino Biological
Assay: Inhibition of ATX, Amplex Red PLD assay kit
Assay type: biochemical
Conditions: hydroxamates; substrate 50 μM LPC 16:0; 2 nM recombinant ATX; mean of two independent experiments; read-out: IC50 (μM) 16:0 LPC
Measure: IC50 (µM)

Here's what some known entries look like.
>>> df
                               smiles_input                             system_tested  measure  reported
0  O=C(Cc1ccc(NC(=O)CCCCCCC(=O)Nc2ccccc2)cc1)NO  recombinant ATX (mouse ATX-β) (Mus musculus)     IC50         2
1  CCCCCCCCc1ccc(CCC(=O)Nc2ccc(CC(=O)NO)cc2)cc1  recombinant ATX (mouse ATX-β) (Mus musculus)     IC50         5
2  CCCC[C@@H](CCCC(=O)NO)NC(=S)NCCCC(=O)Nc1ccccc1  recombinant ATX (mouse ATX-β) (Mus musculus)     IC50       0.8

A. COC(=O)[C@@H](CCCC(=O)NO)NC(=O)CCCCC(=O)Nc1ccccc1
B. COC(=O)[C@@H](CCC(=O)NO)NC(=O)CCCCC(=O)Nc1ccccc1
Select one: A or B . Criterion: greater recorded IC50. Answer by stating the label of the chosen item.
B
(B: 0.4 µM, A: 0.05 µM)

1. Nc1ccccc1NC(=O)Cc1ccc(NC(=O)CCCCC(=O)Nc2ccccc2)cc1
2. COC(=O)[C@@H](CCC(=O)NO)NC(=O)CCCCC(=O)Nc1ccc(OC)cc1
Larger number for IC50: 1 , or 2 ? Kindly state the label of the option you pick.
2
(2: 4 µM, 1: 0.6 µM)

These entries and their values trace back to patent US20180141965A1.
